Data origin, for the record: patent US11999727B2

Molecular target: PRMT5 (Homo sapiens, UniProt O14744)
Construct: purchased Viva (custom protein)
Sequence (O14744 whole entry): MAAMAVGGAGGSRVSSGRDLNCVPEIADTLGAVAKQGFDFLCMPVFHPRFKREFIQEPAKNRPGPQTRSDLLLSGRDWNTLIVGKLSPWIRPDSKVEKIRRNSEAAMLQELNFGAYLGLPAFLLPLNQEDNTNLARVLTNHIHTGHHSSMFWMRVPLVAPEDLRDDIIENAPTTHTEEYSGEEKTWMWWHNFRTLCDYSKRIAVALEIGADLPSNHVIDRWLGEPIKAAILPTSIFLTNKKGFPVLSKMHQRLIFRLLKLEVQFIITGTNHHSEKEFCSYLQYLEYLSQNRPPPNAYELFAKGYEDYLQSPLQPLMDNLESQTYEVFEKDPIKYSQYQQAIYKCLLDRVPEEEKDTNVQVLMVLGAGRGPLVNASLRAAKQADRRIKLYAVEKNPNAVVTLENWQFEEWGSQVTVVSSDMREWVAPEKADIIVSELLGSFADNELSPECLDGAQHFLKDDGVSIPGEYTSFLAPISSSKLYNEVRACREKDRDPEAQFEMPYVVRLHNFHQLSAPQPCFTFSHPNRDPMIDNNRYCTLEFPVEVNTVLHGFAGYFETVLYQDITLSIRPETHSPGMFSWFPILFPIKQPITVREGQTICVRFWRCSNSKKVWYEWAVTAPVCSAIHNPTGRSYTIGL
Sequence (Q9BQA1 whole entry partner): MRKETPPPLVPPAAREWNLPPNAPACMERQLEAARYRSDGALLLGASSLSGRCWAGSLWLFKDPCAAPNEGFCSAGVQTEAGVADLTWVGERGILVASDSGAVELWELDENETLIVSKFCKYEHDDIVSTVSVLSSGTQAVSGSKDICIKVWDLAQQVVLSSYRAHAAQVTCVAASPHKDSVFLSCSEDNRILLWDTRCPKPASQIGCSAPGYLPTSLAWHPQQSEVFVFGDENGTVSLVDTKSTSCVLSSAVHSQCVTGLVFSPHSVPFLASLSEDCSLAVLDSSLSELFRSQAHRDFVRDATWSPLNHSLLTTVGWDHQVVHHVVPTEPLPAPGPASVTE
Assay: PRMT5 biochemical IC50 assay with MTA as cofactor
Settings: PRMT5, MTA as cofactor; read-out: MTA IC50
IC50: recorded values
metric-name: IC50

In [3]: df
Out[3]:
                                   compound                         target_entity  observed_measurement
0  CNc1nc2cc([C@@H]3CC[C@@H](C)CN3C(=O)C(=O)Nc3cnc(N)c(C)c3)ccc2s1 (single isomer, unassigned)  PRMT5 (Homo sapiens, UniProt O14744)              > 500 nM
1  Cc1cc(NC(=O)C(=O)N2CCCC[C@@H]2C2CCCCC2)cnc1N (single isomer, unassigned)  PRMT5 (Homo sapiens, UniProt O14744)               < 50 nM
2  C[C@@H]1CN(C(=O)C(=O)Nc2cncc(C(N)=O)c2)C[C@H]2CCCC[C@H]21 (racemic)  PRMT5 (Homo sapiens, UniProt O14744)          50 to 500 nM
3  Cc1cc(NC(=O)C(=O)N2CCCCC2c2cccc3[nH]cnc23)cnc1N (stereo not shown)  PRMT5 (Homo sapiens, UniProt O14744)          50 to 500 nM
4  COCCc1nc2cc([C@H]3CC[C@H](C)CN3C(=O)C(=O)Nc3cnc(N)c(C4CC4)c3)ccc2s1 (single isomer, unassigned)  PRMT5 (Homo sapiens, UniProt O14744)              > 500 nM
5  CCN1CCC(c2nc3cc([C@H]4CC[C@H](C)CN4C(=O)C(=O)Nc4cnc(N)c(C)c4)ccc3s2)CC1  PRMT5 (Homo sapiens, UniProt O14744)               < 50 nM
6  COc1ncc(NC(=O)C(=O)N2C[C@H](C)CC[C@H]2c2ccc(NS(C)(=O)=O)nc2)cc1C(N)=O (single isomer, unassigned)  PRMT5 (Homo sapiens, UniProt O14744)               < 50 nM

###

Target: PRMT5 (Homo sapiens, UniProt O14744)
Construct: purchased Viva (custom protein)
Assay: PRMT5 biochemical IC50 assay with no cofactor
Settings: PRMT5, no cofactor; read-out: No Cofactor/ rel IC50
pIC50: −log10 of the molar value.
metric-name: pIC50

>>> df
                                   compound                         target_entity  metric_name  observed_measurement
0  C[C@@H]1CC[C@H](c2ccnn2C)N(C(=O)C(=O)Nc2cncc(C(N)=O)c2)C1 (racemic)  PRMT5 (Homo sapiens, UniProt O14744)        pIC50          6.30 to 7.30
1  CCc1cc(NC(=O)C(=O)N2C[C@@H](C)CC[C@@H]2c2ccc3nn([C@@H]4CCCN(C)C4)cc3c2)cnc1N (single isomer, unassigned)  PRMT5 (Homo sapiens, UniProt O14744)        pIC50          6.30 to 7.30
2  Cc1cc(NC(=O)C(=O)N2CCCC[C@@H]2c2ccccc2)cnc1N (single isomer, unassigned)  PRMT5 (Homo sapiens, UniProt O14744)        pIC50          6.30 to 7.30

###

Reported pIC50 values for the following molecules.
Biological target: PRMT5 (Homo sapiens)
Construct: purchased Viva (custom protein)
Experiment: PRMT5 biochemical IC50 assay with SAM as cofactor
Details: PRMT5, SAM as cofactor; read-out: SAM IC50
pIC50: −log10 of the molar value.
metric-name: pIC50

In [3]: df
Out[3]:
                                    molecule         target_entity  metric_name  observed_measurement
 0  Cc1cc(NC(=O)C(=O)N2CCCC[C@H]2C2CCCCC2)cnc1N (single isomer, unassigned)  PRMT5 (Homo sapiens)        pIC50                < 6.30
 1  Cc1ncc(NC(=O)C(=O)N2C[C@H](C)CC[C@H]2c2ccc3c(c2)CCC(=O)N3)cc1C(F)F (single isomer, unassigned) [Compound 874]  PRMT5 (Homo sapiens)        pIC50          6.30 to 7.30
 2  CCc1cc(NC(=O)C(=O)N2[C@@H](C)CCC[C@H]2c2ccc3sc(C4CCN(C)CC4)nc3c2)cnc1N (single isomer, unassigned)  PRMT5 (Homo sapiens)        pIC50          6.30 to 7.30
 3  CC(=O)Nc1ccc([C@@H]2CC[C@@H](C)CN2C(=O)C(=O)Nc2cnc(N)c(C)c2)cn1 (single isomer, unassigned)  PRMT5 (Homo sapiens)        pIC50                < 6.30
 4  Cc1cc(NC(=O)C(=O)N2C[C@H](C)CC[C@H]2c2ccc(NS(C)(=O)=O)cc2)cnc1C (single isomer, unassigned)  PRMT5 (Homo sapiens)        pIC50                < 6.30
 5  Cc1cc(NC(=O)C(=O)N2C[C@H](C)CC[C@H]2c2cccc(S(N)(=O)=O)c2)cnc1N (racemic)  PRMT5 (Homo sapiens)        pIC50          6.30 to 7.30
 6  COc1ncc(NC(=O)C(=O)N2C[C@@H](C)CC[C@@H]2c2ccc3sc([C@H]4CCN(C)C[C@H]4C)nc3c2)cc1C(N)=O (racemic)  PRMT5 (Homo sapiens)        pIC50                > 7.30
 7  Cc1ccc([C@H]2CC[C@H](C)CN2C(=O)C(=O)Nc2cncc(C(N)=O)c2)nc1 (racemic)  PRMT5 (Homo sapiens)        pIC50          6.30 to 7.30
 8  C[C@@H]1CC[C@@H](c2cccc(C(F)F)c2)N(C(=O)C(=O)Nc2cncc(C(N)=O)c2)C1 (racemic)  PRMT5 (Homo sapiens)        pIC50          6.30 to 7.30
 9  C[C@H]1CC[C@H](c2ccc(-c3cncs3)cc2)N(C(=O)C(=O)Nc2cncc(C(N)=O)c2)C1 (single isomer, unassigned)  PRMT5 (Homo sapiens)        pIC50          6.30 to 7.30
10  CCc1cc(NC(=O)C(=O)N2C[C@H](C)CC[C@H]2c2ccc(-c3cncs3)cc2)cnc1N (single isomer, unassigned)  PRMT5 (Homo sapiens)        pIC50          6.30 to 7.30
11  CCc1cc(NC(=O)C(=O)N2C[C@@H](C)CC[C@@H]2c2cccc(Oc3cc(C)nc(C)c3)c2)cnc1N  PRMT5 (Homo sapiens)        pIC50          6.30 to 7.30
12  CCc1cc(NC(=O)C(=O)N2C[C@@H](C)CC[C@@H]2c2cccc([C@H]3CCCN(C)C3)c2)cnc1N (single isomer, unassigned) [Compound 1353]  PRMT5 (Homo sapiens)        pIC50          6.30 to 7.30

###

Target: PRMT5 (Homo sapiens, UniProt O14744)
Construct: purchased Viva (custom protein)
Assay: PRMT5 biochemical IC50 assay with SAM as cofactor
Conditions: PRMT5, SAM as cofactor; read-out: SAM IC50
# reported IC50; entries follow
metric-name: IC50

                                   compound  metric_name  observed_measurement
0  CCc1cc(NC(=O)C(=O)N2C[C@H](C)CC[C@H]2c2ccc(N3CCN(C(C)C)CC3)cc2)cnc1N (single isomer, unassigned) [Compound 1234]         IC50              > 500 nM
1  Cc1cc(NC(=O)C(=O)N2C[C@@H](C)CC[C@@H]2c2ccc(C(F)(F)F)cc2)cnc1N (single isomer, unassigned) [Compound 575]         IC50              > 500 nM
2  C[C@@H]1CC[C@@H](c2cccc(S(N)(=O)=O)c2)N(C(=O)C(=O)Nc2cncc(C(N)=O)c2)C1 (racemic) [Compound 661]         IC50          50 to 500 nM
3  Cc1cc(NC(=O)C(=O)N2C[C@@H](C)CC[C@@H]2[C@H]2CC[C@@H](O)CC2)cnc1N (single isomer, unassigned) [Compound 423]         IC50              > 500 nM
4  NC(=O)c1cc(NC(=O)C(=O)N2CCCCC2c2ccccc2)cnc1N (stereo not drawn) [Compound 126]         IC50          50 to 500 nM
5  Cc1cc(NC(=O)C(=O)N2C[C@H](C)CC[C@H]2c2ccc3nn(C)cc3c2)cnc1N (racemic) [Compound 912]         IC50          50 to 500 nM

###

Target: PRMT5 (Homo sapiens, UniProt O14744)
Construct: purchased Viva (custom protein)
Test: PRMT5 biochemical IC50 assay with SAM as cofactor
Conditions: PRMT5, SAM as cofactor; read-out: SAM IC50
metric-name: IC50

>>> print(df.to_string())
                                   compound  metric_name  observed_measurement
0  C[C@H]1CC[C@H](c2ccc(F)c(F)c2)N(C(=O)C(=O)Nc2cncc(C(N)=O)c2)C1 (single isomer, unassigned)         IC50          50 to 500 nM
1  CC(C)c1cc([C@@H]2CC[C@@H](C)CN2C(=O)C(=O)Nc2cncc(C(N)=O)c2)ccc1O (racemic)         IC50          50 to 500 nM
2  CCc1cc(NC(=O)C(=O)N2C[C@@H](C)CC[C@@H]2c2ccc3cn(C4CC(C)(C)N(C)C(C)(C)C4)nc3c2)cnc1N (racemic)         IC50               < 50 nM
3  Cc1cc(NC(=O)C(=O)N2C[C@H](C)CC[C@H]2c2ccc(CO)cc2)cnc1N (single isomer, unassigned)         IC50              > 500 nM
4  CCc1cc(NC(=O)C(=O)N2C[C@@H](C)CC[C@@H]2c2ccc(N3C[C@H]4CCN(C)C[C@H]4C3)cc2)cnc1N (racemic)         IC50               < 50 nM
5  [H][C@@]1([C@]2([H])C[C@@]3(C[C@H](O)C3)C2)CC[C@@H](C)CN1C(=O)C(=O)Nc1cnc(N)c(C)c1 (mixture of isomers) [Compound 711]         IC50              > 500 nM
